Measured EC50 of individual entries
# TESTED TARGET: Metabotropic glutamate receptor 2 (Homo sapiens)
# Sequence (Q14416 whole entry): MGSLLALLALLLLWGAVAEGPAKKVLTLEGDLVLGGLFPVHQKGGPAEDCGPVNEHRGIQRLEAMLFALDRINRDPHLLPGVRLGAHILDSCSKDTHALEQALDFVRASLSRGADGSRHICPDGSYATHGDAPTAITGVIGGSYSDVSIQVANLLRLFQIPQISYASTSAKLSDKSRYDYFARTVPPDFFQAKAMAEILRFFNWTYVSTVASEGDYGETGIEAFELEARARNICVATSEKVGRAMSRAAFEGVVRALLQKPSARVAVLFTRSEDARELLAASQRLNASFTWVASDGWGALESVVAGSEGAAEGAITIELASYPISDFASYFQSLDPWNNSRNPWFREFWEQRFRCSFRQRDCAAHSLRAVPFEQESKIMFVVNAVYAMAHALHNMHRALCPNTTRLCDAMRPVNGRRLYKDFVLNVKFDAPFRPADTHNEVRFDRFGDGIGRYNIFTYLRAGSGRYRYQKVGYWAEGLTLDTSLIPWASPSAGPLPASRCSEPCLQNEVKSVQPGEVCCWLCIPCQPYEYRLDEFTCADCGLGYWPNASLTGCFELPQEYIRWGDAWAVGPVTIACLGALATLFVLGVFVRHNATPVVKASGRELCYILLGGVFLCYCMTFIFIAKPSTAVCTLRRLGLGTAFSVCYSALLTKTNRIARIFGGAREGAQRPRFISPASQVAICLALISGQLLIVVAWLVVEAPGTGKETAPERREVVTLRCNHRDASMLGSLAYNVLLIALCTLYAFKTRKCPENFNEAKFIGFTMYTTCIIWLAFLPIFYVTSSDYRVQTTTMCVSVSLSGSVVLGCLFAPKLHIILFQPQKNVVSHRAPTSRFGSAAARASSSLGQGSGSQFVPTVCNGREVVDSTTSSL
# MEASUREMENT PROTOCOL: Positive modulator activity at human mGlu2 receptor expressed in HEK293 cells co-expressing Gqo5 assessed as increase in intracellular Ca2+ mobilization incubated for 1 hr in presence of EC20 glutamate by Fluo-4 dye based fluorescence assay
# Type: functional, cell-based
# TEST CONTEXT: read-out: EC50
MEASURE NAME: EC50 (nM)

>  <MOLECULAR STRING>
COc1c(OCCOCCOCCOCCOCCOc2ccc(C3CCN(c4ccn5c(CC6CC6)nnc5c4Cl)CC3)cc2)cccc1C(=O)C1CCN(CCc2ccc(F)cc2)CC1

>  <OP>
=

>  <OBSERVED>
510

$$$$
>  <MOLECULAR STRING>
COc1c(OCCOCCOCCOCCOCCOCCOCCOCCOCCOCCOCCOCCOc2ccc(C3CCN(c4ccn5c(CC6CC6)nnc5c4Cl)CC3)cc2)cccc1C(=O)C1CCN(CCc2ccc(F)cc2)CC1

>  <OP>
=

>  <OBSERVED>
480

$$$$
>  <MOLECULAR STRING>
COCCOc1cccc(C(=O)C2CCN(CCc3ccc(F)cc3)CC2)c1OC

>  <OP>
>

>  <OBSERVED>
50000

$$$$
>  <MOLECULAR STRING>
COc1c(O)cccc1C(=O)C1CCN(CCc2ccc(F)cc2)CC1

>  <OP>
>

>  <OBSERVED>
50000

$$$$
>  <MOLECULAR STRING>
COc1cccc(C(=O)C2CCN(CCc3ccc(F)cc3)CC2)c1OC

>  <OP>
>

>  <OBSERVED>
50000

$$$$
>  <MOLECULAR STRING>
COc1c(OCCOCCOCCOc2ccc(C3CCN(c4ccn5c(CC6CC6)nnc5c4Cl)CC3)cc2)cccc1C(=O)C1CCN(CCc2ccc(F)cc2)CC1

>  <OP>
=

>  <OBSERVED>
320

$$$$
>  <MOLECULAR STRING>
COc1c(OCCOCCOCCOCCOCCOCCOCCOCCOCCOCCOc2ccc(C3CCN(c4ccn5c(CC6CC6)nnc5c4Cl)CC3)cc2)cccc1C(=O)C1CCN(CCc2ccc(F)cc2)CC1

>  <OP>
=

>  <OBSERVED>
320

$$$$

---

# TESTED TARGET: 5-hydroxytryptamine receptor 2A/Metabotropic glutamate receptor 2 (Homo sapiens, UniProt P28223+Q14416)
# Sequence (P28223 whole entry): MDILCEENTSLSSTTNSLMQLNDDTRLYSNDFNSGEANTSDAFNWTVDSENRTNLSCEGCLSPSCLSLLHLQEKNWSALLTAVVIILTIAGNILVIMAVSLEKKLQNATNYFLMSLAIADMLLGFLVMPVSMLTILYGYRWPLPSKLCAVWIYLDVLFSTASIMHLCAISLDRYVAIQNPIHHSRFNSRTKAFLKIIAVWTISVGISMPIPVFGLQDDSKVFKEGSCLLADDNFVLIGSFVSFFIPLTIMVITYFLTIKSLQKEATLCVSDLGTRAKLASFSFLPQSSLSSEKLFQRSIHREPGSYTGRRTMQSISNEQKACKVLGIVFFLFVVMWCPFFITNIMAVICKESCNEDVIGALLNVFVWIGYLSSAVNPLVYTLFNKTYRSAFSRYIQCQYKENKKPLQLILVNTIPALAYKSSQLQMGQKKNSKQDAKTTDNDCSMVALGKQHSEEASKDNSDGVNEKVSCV
# Sequence (Q14416 whole entry): as the sequence (Q14416 whole entry) above
# MEASUREMENT PROTOCOL: Displacement of [3H]-ketanserin from human 5HT2A/mGlu2 receptor expressed in HEK293 cell membranes incubated for 2 hrs by scintillation counting method
# TEST CONTEXT: read-out: Ki
pKi: −log10 of the molar value.
MEASURE NAME: pKi

>  <MOLECULAR STRING>
COc1c(OCCOCCOCCOCCOCCOCCOCCOCCOCCOCCOCCOCCOc2ccc(C3CCN(c4ccn5c(CC6CC6)nnc5c4Cl)CC3)cc2)cccc1C(=O)C1CCN(CCc2ccc(F)cc2)CC1

>  <OBSERVED>
6.77

$$$$
>  <MOLECULAR STRING>
COc1cccc(C(=O)C2CCN(CCc3ccc(F)cc3)CC2)c1OC

>  <OBSERVED>
8.52

$$$$
>  <MOLECULAR STRING>
COc1c(OCCOCCOCCOCCOCCOc2ccc(C3CCN(c4ccn5c(CC6CC6)nnc5c4Cl)CC3)cc2)cccc1C(=O)C1CCN(CCc2ccc(F)cc2)CC1

>  <OBSERVED>
6.74

$$$$
